# experimental_target: T1, human IL-18 binding protein (IL-18BP) (human, UniProt O95998 31-194)
# T1 construct: also called hu IL-18BP; hIL18BP
# T1 sequence (looked up): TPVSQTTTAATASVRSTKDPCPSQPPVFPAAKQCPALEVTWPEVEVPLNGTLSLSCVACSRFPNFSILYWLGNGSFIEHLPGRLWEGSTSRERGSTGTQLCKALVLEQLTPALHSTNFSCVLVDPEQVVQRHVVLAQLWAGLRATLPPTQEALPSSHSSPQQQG
# measurement_notes: Octet BLI
kon values, listed per item
readout_type: kon (M⁻¹ s⁻¹)

* IL-18 variant G3E, K53S (ligand) YFEKLESKLSVIRNLNDQVLFIDQGNRPLFEDMTDSDMRDNAPRTIFIISMYSDSQPRGMAVTISVKSEKISTLSSENKIISFKEMNPPDNIKDTKSDIIFFQRSVPGHDNKMQFESSSYEGYFLASEKERDLFKLILKKEDELGDRSIMFTVQNED | 78500
* IL-18 variant G3F, N91E, K53S (ligand, also called G3F/K53S/N91E) YFFKLESKLSVIRNLNDQVLFIDQGNRPLFEDMTDSDMRDNAPRTIFIISMYSDSQPRGMAVTISVKSEKISTLSSENKIISFKEMNPPDEIKDTKSDIIFFQRSVPGHDNKMQFESSSYEGYFLASEKERDLFKLILKKEDELGDRSIMFTVQNED | 213000
* IL-18 variant G3R, N91M, K53A (ligand, also called G3R/K53A/N91M) YFRKLESKLSVIRNLNDQVLFIDQGNRPLFEDMTDSDMRDNAPRTIFIISMYADSQPRGMAVTISVKSEKISTLSSENKIISFKEMNPPDMIKDTKSDIIFFQRSVPGHDNKMQFESSSYEGYFLASEKERDLFKLILKKEDELGDRSIMFTVQNED | 208000
* IL-18 variant G3R, N91S, K53A (ligand) YFRKLESKLSVIRNLNDQVLFIDQGNRPLFEDMTDSDMRDNAPRTIFIISMYADSQPRGMAVTISVKSEKISTLSSENKIISFKEMNPPDSIKDTKSDIIFFQRSVPGHDNKMQFESSSYEGYFLASEKERDLFKLILKKEDELGDRSIMFTVQNED | 191000
